molecular target: Mannose-6-phosphate isomerase (Homo sapiens); assay: MPI inhibition at elevated mannose 6-phosphate – biochemical, fluorescence intensity, high mannose 6-phosphate, primary screen (AID 1220); settings: recombinant PMI enzyme, coupled fluorescence intensity; at 20 µM; active compounds read high
In all, about 190,000 compounds went through this assay and about 1,300 (0.68%) were called active. Shown is part of a subset that was picked to be rich in actives.
Answer not satisfied if inhibition is under 10%, and satisfied if it is 10% or more.

stdin: Hi, just wondering whether COc1ccc(NC(=O)c2cc(Br)c(Br)s2)cn1 shows inhibition of 10% or higher.
stdout: satisfied

stdin: Determine whether measured inhibition meets or exceeds 10% for CCOC(=O)c1ccc(N2C(=O)CC(N3CCOCC3)C2=O)cc1 (configuration not stated)
stdout: not satisfied

stdin: Reported inhibition reaches at least 10% for COc1ccc(NC(=O)c2cc(OC)c(OC)c(OC)c2)cn1 ?
stdout: not satisfied

stdin: Assess whether reported inhibition for COc1ccc(NC(=O)c2sccc2C)cn1 sits at 10% or higher.
stdout: satisfied

stdin: Is the recorded value of inhibition equal to or greater than 10% for this molecule? Cc1cccc(C=Nc2ccc3c4c(cccc24)CC3)c1O
stdout: satisfied

stdin: Please check the record COC(=O)C(C)Sc1nc(N)c(NC(=O)c2ccco2)c(=O)[nH]1 (configuration not stated) and state if its inhibition is at or above 10%.
stdout: not satisfied

stdin: Check if inhibition >= 10% (inclusive). Item: Cc1cc(C)cc(NC(=O)C2(c3cccs3)CCOCC2)c1
stdout: not satisfied

stdin: Tell me whether inhibition is at least 10% here: Oc1ccc(Br)cc1C=Nc1ccc2c3c(cccc13)CC2
stdout: satisfied
